- System: CAKI-1 renal
- measurement.notes: NCI tumour cell line growth inhibition, 48 h
recorded.metric: TGI

{"compound": "CCN(CC)CCNc1ccc(CO)c2sc3ccccc3c(=O)c12", "TGI": "26.4 µM [middle of 4 runs]"}
{"compound": "CCOP(=O)(C/C(=N/NC(C)(C)C)C(=O)Nc1nc2ccc(C)cc2s1)OCC", "TGI": "> 100 µM"}
{"compound": "O=C(O)c1cc2c3c(c1)[C@H]1C=CC[C@H]1CN3CC1CC=CC21 (stereo partly specified)", "TGI": "> 100 µM"}
{"compound": "O=C(c1cccs1)N(C(=S)OCc1ccccn1)c1ccccc1", "TGI": "> 100 µM"}
{"compound": "CP(=O)(CCSc1ccccc1)c1ccccc1 (stereo unspecified)", "TGI": "> 100 µM"}

In the following, a different compound is considered.
Inquiry: // returns reported TGI for input CC(C)(C)OC(=O)N(CCCn1c2c(c3ccccc3c1=O)C(=O)c1ccccc1-2)CCN(CCCn1c2c(c3ccccc3c1=O)C(=O)c1ccccc1-2)C(=O)OC(C)(C)C
Reply text: > 50 µM
